- Tested on: Vero E6
- experimental_details: cell viability relative to DMSO; higher = less toxic
- settings: 72 h; 1 nM
parameter_measured: cell viability (%)
# number only, unit % dropped from output

1) NCC(CS(=O)(=O)O)c1ccc(Cl)cc1 (centres undefined) [saclofen]    106

Prompt: Tell me its cell viability given Oc1ccc(OCc2ccccc2)cc1 [monobenzone] as the entry.
Response: 95.8

Prompt: Provide only the value of recorded cell viability for CC12CCC(CC1=O)C2(C)C (stereo not drawn) [camphor-(+)]
Response: 96.9

Prompt: Provide only the value of recorded cell viability for Cc1ccc(C(=O)Nc2cccc(C(F)(F)F)c2)cc1Nc1nc(-c2cccnc2)nc2c1cnn2C [NVP-BHG712]
Response: 96.5

Prompt: Given the compound COc1cc(/C=C/c2ccc(OC)cc2OC)cc(OC)c1 [TMS] , write its reported cell viability.
Response: 93.6

Prompt: Provide cell viability value for the following compound: O=C(NCCCN1CCOCC1)c1cnn2c(-c3ccccc3)cc(-c3ccccc3)nc12 [reversan]
Response: 97.8

Prompt: // fetch cell viability given entry Clc1ccc(COC(Cn2ccnc2)c2ccc(Cl)cc2Cl)c(Cl)c1 (centres undefined) [miconazole]
Response: 106

Prompt: Determine from records and report cell viability for CC(=O)Nc1cccc(-n2c(=O)n(C3CC3)c(=O)c3c(Nc4ccc(I)cc4F)n(C)c(=O)c(C)c32)c1 [trametinib]
Response: 101

Prompt: Annotate the compound O=C(NOCCO)c1cc(CN2OCCCC2=O)c(F)c(F)c1Nc1ccc(I)cc1F with its measured cell viability.
Response: 89.3

---

- Test system: HepG2
- experimental_details: cell viability relative to DMSO; higher = less toxic
- settings: 72 h; 10000 nM
Cut-off 90% on cell viability: below means yes, at or above means no.

Please review the entries below; each comes with its answer.
1) C/C(=C\c1csc(C)n1)[C@@H]1C[C@@H]2O[C@]2(C)CCC[C@H](C)[C@H](O)[C@@H](C)C(=O)C(C)(C)[C@@H](O)CC(=O)N1 [ixabepilone]    yes
2) C[C@@H]1O[C@@H](O[C@@H]2[C@@H](O)[C@H](OCCc3ccc(O)c(O)c3)O[C@H](CO)[C@H]2OC(=O)/C=C/c2ccc(O)c(O)c2)[C@H](O)[C@H](O)[C@H]1O [verbascoside]    no
3) O=C(O)Cc1cccc2c(=O)cc(-c3ccccc3)oc12    no
4) COC(=O)[C@@H]1C[C@H](OC(C)=O)C(=O)[C@H]2[C@@]1(C)CC[C@H]1C(=O)O[C@H](c3ccoc3)C[C@]21C    no
5) O=C(N[C@@H]1Cc2ccccc2N(C[C@@H](O)CO)C1=O)c1cc2cc(Cl)sc2[nH]1    no

Prompt: Quick check: cell viability of Oc1nc(O)c2nc(O)[nH]c2n1 under 90%?
Response: no

Prompt: Does this compound meet the criterion cell viability < 90%? Cc1cc(-c2nc(C(=O)Nc3cn(C4CCOCC4)nc3C(N)=O)co2)ccn1
Response: no

Prompt: Say whether its cell viability is strictly beneath 90%. Entry: CONC(=N)c1ccc(-c2ccc(-c3ccc(C(=N)NOC)cc3)o2)cc1
Response: no

---

- Tested on: HepG2
- experimental_details: drug sensitivity score (DSS) for viability; higher = more toxic; extreme values may be limits of the assay
- settings: 72 h
parameter_measured: drug sensitivity score

Observe how each entry below is paired with its result.
1. CN(c1ccccc1CNc1nc(Nc2ccc3c(c2)CC(=O)N3)ncc1C(F)(F)F)S(C)(=O)=O    10.9
2. BrC1C(Br)C(Br)C(Br)C(Br)C1Br (stereo not given)    0
3. CO[C@H]1/C=C/O[C@@]2(C)Oc3c(C)c(O)c4c(O)c(c5c(nc6cc(C)ccn65)c4c3C2=O)NC(=O)/C(C)=C\C=C\[C@H](C)[C@H](O)[C@@H](C)[C@@H](O)[C@@H](C)[C@H](OC(C)=O)[C@@H]1C    0
4. Cc1cccn2c(=O)c(/C=C(\C#N)c3nc4ccccc4s3)c(Oc3ccc(F)cc3)nc12    0
5. COC(=O)N[C@H](C(=O)N1CCC[C@H]1c1nc(-c2ccc3c(c2)O[C@@H](c2ccccc2)n2c-3cc3cc(-c4c[nH]c([C@@H]5CCCN5C(=O)[C@@H](NC(=O)OC)C(C)C)n4)ccc32)c[nH]1)C(C)C    0

Prompt: Please list drug sensitivity score recorded for the molecule CCOC(=O)c1ccc(N2NC(=O)/C(=C/c3ccc([N+](=O)[O-])o3)C2=O)cc1
Response: 0.1

Prompt: Check the records and state drug sensitivity score for CC(=O)Nc1cccc(-n2c(=O)n(C3CC3)c(=O)c3c(Nc4ccc(I)cc4F)n(C)c(=O)c(C)c32)c1
Response: 30.5

Prompt: Give drug sensitivity score for the following molecule: CONC(=N)c1ccc(-c2ccc(-c3ccc(C(=N)NOC)cc3)o2)cc1
Response: 0

Prompt: Fill in reported drug sensitivity score for this entry: COc1cc(Br)c(S(=O)(=O)Nc2ccc(Cl)c(O[C@@H]3CCN(C)C3)c2)cc1OC
Response: 4.9

Prompt: Look up and state reported drug sensitivity score for COc1cc2c(NC3CCN(C)CC3)nc(N3CCCN(C)CC3)nc2cc1OCCCN(C)C
Response: 0

Prompt: Dear colleague, please send me the reported drug sensitivity score for C/C(=N\NC(=N)N)c1cc(NC(=O)CCCCCCCCC(=O)Nc2cc(/C(C)=N/NC(=N)N)cc(/C(C)=N/NC(=N)N)c2)cc(/C(C)=N/NC(=N)N)c1 when you can.
Response: 3

Prompt: Return reported drug sensitivity score. Input molecule: O=C(Nc1ccc(Oc2ccc(Cl)cn2)c(Cl)c1)c1ccccn1
Response: 0

Prompt: Input CC(C)NNC(=O)c1ccncc1 , output reported drug sensitivity score.
Response: 0

Prompt: Supply measured drug sensitivity score of OCc1ccc(O[C@@H]2O[C@H](CO)[C@@H](O)[C@H](O)[C@H]2O)cc1 in your reply.
Response: 0

Prompt: In one line, give reported drug sensitivity score of the entry CN1C(CCl)Nc2cc(Cl)c(S(N)(=O)=O)cc2S1(=O)=O (stereo not given) [methyclothiazide] .
Response: 0

---

Measured cell viability, listed per entry.
- Tested on: Caco-2
- experimental_details: cell viability relative to DMSO; higher = less toxic
- settings: 72 h; 1 nM
Your answer should be a plain number; it is taken to be in %.

Worked examples follow.
1) C[C@H](/C=C/[C@H](C)C(C)(C)O)[C@H]1CC[C@H]2/C(=C/C=C3C[C@@H](O)C[C@H](O)C3)CCC[C@]12C    102
2) CCO[C@@H](Cc1ccc(OCCn2c(C)ccc2-c2ccc(SC)cc2)cc1)C(=O)O    92
3) c1ccc(CCCN2CCN(CCOC(c3ccccc3)c3ccccc3)CC2)cc1    104
4) Cc1nnc2ccc(-c3cccc(C(F)(F)F)c3)nn12    92.5
5) O=C(Oc1cc(S(=O)(=O)c2ccccc2)ccc1[N+](=O)[O-])c1ccc(Cl)cc1    103
6) C[C@@H]1O[C@@H](O[C@@H]2[C@@H](O)[C@H](OCCc3ccc(O)c(O)c3)O[C@H](CO)[C@H]2OC(=O)/C=C/c2ccc(O)c(O)c2)[C@H](O)[C@H](O)[C@H]1O [verbascoside]    96.4
7) Cc1cccn2c(=O)c(/C=C(\C#N)c3nc4ccccc4s3)c(Oc3ccc(F)cc3)nc12    105

We next turn to a different compound, shown below.
Prompt: Tell me cell viability reported for C[C@H](N)C(=O)O
Response: 102

---

Let's look at some molecules and their measured drug sensitivity score.
- Tested on: HepG2
- experimental_details: drug sensitivity score (DSS) for viability; higher = more toxic; extreme values may be limits of the assay
- settings: 72 h
// response body must contain only the number

Example results:
1. CCN1CCCC1=O    0
2. O=C1C(CC[S+]([O-])c2ccccc2)C(=O)N(c2ccccc2)N1c1ccccc1 (centres undefined)    0
3. COc1ccc(-c2coc3cc(O)ccc3c2=O)cc1    0

Prompt: Quick one: give measured drug sensitivity score for C/C(=C\c1csc(C)n1)[C@@H]1C[C@@H]2O[C@]2(C)CCC[C@H](C)[C@H](O)[C@@H](C)C(=O)C(C)(C)[C@@H](O)CC(=O)N1 [ixabepilone]
Response: 21.7

---

# cell viability annotations
- System: U2OS
- experimental_details: cell viability relative to DMSO; higher = less toxic
- settings: 72 h; 1 nM
Response body: numeric value in %, unit text excluded.

1. O=C1Nc2ccccc2C12OCC1(CO2)COC2(OC1)C(=O)Nc1ccccc12 (stereo not given)    97.6
2. COc1cc(Br)c(Nc2nc(-c3c(C)nc4ncccn34)cs2)c(Br)c1    97.7

Prompt: Tell me its cell viability given CCn1nc(C2CCN(C(=O)CCO)CC2)nc1-c1cnc(N)c(-c2nnc(C(C)(C)C)o2)n1 as the entry.
Response: 102

Prompt: Give me measured cell viability, please, for this compound: Cc1nn(-c2ccccc2)c(C)c1/C=N/N1CCN(Cc2ccccc2)CC1
Response: 105

Prompt: Let me know recorded cell viability for O=C(CCc1ccc(O)cc1)c1c(O)cc(O)cc1O , thanks.
Response: 95.8
